assay: in vitro; settings: human
Where a name gives a salt, the structure may show the parent alone.
Measured CC50 values are reported for all entries that follow.

Challenge: Given the entry NC(=O)c1[nH]nc([C@@H]2O[C@H](CO)[C@@H](O)[C@H]2O)c1O , report its measured CC50.
Response given: > 50 µM

Challenge: Given the entry O=c1cnn([C@@H]2O[C@H](CO)[C@@H](O)[C@H]2O)c(=O)[nH]1 , report its measured CC50.
Response given: > 50 µM

Challenge: Given the entry Cc1c(-c2ccc(-c3ccccc3F)cc2)nc2ccc(F)cc2c1C(=O)O [Brequinar, brequinar sodium salt hydrate] , report its measured CC50.
Response given: > 50 µM

# ---- query molecule ----
Challenge: Given the entry CC[C@H](CC#N)OC(=O)N[C@@H](C)c1cccc(NC(=O)Nc2ccc(-c3cnco3)c(OC)c2)c1 , report its measured CC50.
Response given: > 50 µM

====

system: rVACV Nluc/Scarlet; experiment: microbe, parasite or virus in culture; format: cell-based, vaccinia virus (VACV); details: Orthopoxvirus vaccinia, A549, read-out: EC50 FP (Scarlet fluorescence)
Where a name gives a salt, the structure may show the parent alone.
Measured pEC50 values are reported for all entries that follow.
Kindly note that pEC50 refers to -log10 of the concentration in mol/L and answer with the value alone.

Reference set (2 entries):
Challenge: Given the entry CCCCCC[C@H]1C(=O)O[C@H](C)[C@H](NC(=O)c2cccc(NC=O)c2O)C(=O)O[C@@H](C)[C@@H]1OC(=O)CC(C)C [Antimycin A, antimycin A] , report its measured pEC50.
Response given: 7.15

Challenge: Given the entry Cc1c(-c2ccc(-c3ccccc3F)cc2)nc2ccc(F)cc2c1C(=O)O [Brequinar, brequinar sodium salt hydrate] , report its measured pEC50.
Response given: 6.92

# ---- query compound ----
Challenge: Given the entry CC[C@@H](C(=O)O)[C@@H]1O[C@@H]([C@@H](C)[C@H](O)[C@H](C)C(=O)[C@H](CC)[C@H]2O[C@]3(C=C[C@@H](O)[C@]4(CC[C@@](C)([C@H]5CC[C@](O)(CC)[C@H](C)O5)O4)O3)[C@H](C)C[C@@H]2C)[C@@H](C)C[C@@H]1C [Narasin, narasin sodium salt] , report its measured pEC50.
Response given: 7.70

====

system: rVACV Nluc/Scarlet; experiment: microbe, parasite or virus in culture; format: cell-based, vaccinia virus (VACV); conditions: Orthopoxvirus vaccinia, A549, read-out: EC50 FP (Scarlet fluorescence)
Measured EC50 values are reported for all entries that follow.
// note: answer is a bare numeric in nM

Reference set (5 entries):
Challenge: // map NC(=O)c1[nH]nc([C@@H]2O[C@H](CO)[C@@H](O)[C@H]2O)c1O to recorded EC50 (system: rVACV Nluc/Scarlet)
Response given: 370

Challenge: // map O=c1cnn([C@@H]2O[C@H](CO)[C@@H](O)[C@H]2O)c(=O)[nH]1 to recorded EC50 (system: rVACV Nluc/Scarlet)
Response given: 840

Challenge: // map COc1c(C)c2c(c(O)c1C/C=C(\C)CCC(=O)OCCN1CCOCC1)C(=O)OC2 [Mycophenolate mofetil, mycophenolate mofetil] to recorded EC50 (system: rVACV Nluc/Scarlet)
Response given: 1200

Challenge: // map NCC(=O)Nc1ccc(-n2nc(C(F)(F)F)cc2-c2ccc3c(ccc4ccccc43)c2)cc1 to recorded EC50 (system: rVACV Nluc/Scarlet)
Response given: 2320

Challenge: // map S=C(NCc1ccc2c(c1)OCO2)N1CCN(c2ncnc3c2oc2ccccc23)CC1 to recorded EC50 (system: rVACV Nluc/Scarlet)
Response given: 4760

Further cases:
Challenge: // map C=C(C)[C@H]1Cc2c(ccc3c2O[C@@H]2COc4cc(OC)c(OC)cc4[C@@H]2C3=O)O1 to recorded EC50 (system: rVACV Nluc/Scarlet)
Response given: 15

Challenge: // map COc1c(C)c2c(c(O)c1C/C=C(\C)CCC(=O)O)C(=O)OC2 to recorded EC50 (system: rVACV Nluc/Scarlet)
Response given: 460
